I'd be grateful if you could share measured Ratio/Fc-WT for these entries.
target: T1, FcRn-p3 fusion protein (human, UniProt P55899 24-297; P61769 21-119); assay: phage ELISA pH6
T1 construct: baculovirus expressed; coated on ELISA wells; not shown: amino terminal part of bacteriophage p3 protein and CVDE protein
T1 sequence (P55899 24-297, chain 1 of 2): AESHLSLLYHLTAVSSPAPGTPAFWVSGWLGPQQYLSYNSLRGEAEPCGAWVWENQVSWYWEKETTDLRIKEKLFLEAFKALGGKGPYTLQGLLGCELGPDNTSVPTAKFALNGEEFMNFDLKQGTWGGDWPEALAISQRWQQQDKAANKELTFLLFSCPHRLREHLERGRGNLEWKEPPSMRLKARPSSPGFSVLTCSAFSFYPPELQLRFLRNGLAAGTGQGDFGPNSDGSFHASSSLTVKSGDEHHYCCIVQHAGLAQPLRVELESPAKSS
T1 sequence (P61769 21-119, chain 2 of 2): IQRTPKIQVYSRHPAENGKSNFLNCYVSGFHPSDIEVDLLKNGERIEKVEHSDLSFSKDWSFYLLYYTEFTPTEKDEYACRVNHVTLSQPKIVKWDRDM
Numbers only, in fold.

These recorded examples may help you get a feel for the data.
# Ratio/Fc-WT (binder: B6A_20 (other, EU numbering) CPPCPAPELLGGPSVFLFPPKPKDTLMISRTPEVTCVVVDVSHEDPEVKFNWYVDGVEVHNAKTKPREEQYNSTYRVVSVLTVLHQDWLNGKEYTCKVSNKALPAPIEKTISKAKGQPREPQVYTLPPSRDELTKNQVSLTCLVKGFYPSDIAVEWESNGQPENNYKTTPPVLDSDGSFFLYSKLTVDKSRWQQGNVFSCSVMHEALHYHYTQRSLSLSPGE ) is 3.7

Just so you know, measured Ratio/Fc-WT for S4A_25 (other, EU numbering) CPPCPAPELLGGPSVFLFPPKPKDTLMISRTPEVTCVVVGVSHEDPEVKFNWYVDGVEVHNAKTKPREEQYNSTYRVVSVLTVLHQDWLNGKEYKCKVSNKALPAPIEKTISKAKGQPREPQVYTLPPSRDELTKNQVSLTCLVKGFYPSDIAVEWESNGQPENNYKTTPPVLDSDGSFFLYTKLTVDKSRWQQGNVFSCSVMHEALHYHYTQKSLSLFPGK came out at 4.2

Record summary for S4A_42 (other, EU numbering) CPPCPAPELLGGPSVFLFPPKPKDTLMISRTPEVTCVVADVSHEDPEVKFNWYVDGVEVHNAKTKPREEQYNSTYRVVSVLTVLHQDWLNGKEYKCKVSNKALPAPIEKTISKAKGQPREPQVYTLPPSRDELTKNQVSLTCLVKGFYPSDIAVEWESNGQPENNYKTTPPVLDSDGSFFLYSKLTVDKSRWQQGNVFSCSVMHEALHYHYTQKSLSLSPAK : reported Ratio/Fc-WT = 4.2

Ratio/Fc-WT for S5A_07 (other, EU numbering) CPPCPAPELLGGPSVFLFPPKPKDTLMISRTPEVTCVVVDVSHEDPEVKFNWYVDGVEVHNAKTKPREEQYNSTYRVVSVLTVLHQDWLNGKEYKCKVSNKALPAPIEKTISKAKGQPREPQVYTLPPSRDELTKNQVSLTCLVKGFYPSDIVVEWESNGQPENNYKTTPPVLDSDGSFFLYSKLTVDKSRWQQGTVFSCSVMHEALHSHYTQKSLSLSPGK is 5.1

// below: Ratio/Fc-WT requested for another binder
# binder S4A_05 (other, EU numbering) CPPCPAPELLGGPSVFLFPPKPKDTLMISRTPEVTCVVVDVSHEDPEVKFNWYVDGVEVHNAKTKPREEQYNSTYRVVSVLTVLHQDWLNGKEYKCKVSNKALPAPIEKTISKAKGQPREPQVYTLPPSRDELTKNQVSLTCLVKGFYPSDIVVEWESNGQPENNYKTTPPVLDSAGSFFLYSKLTVDKSRWQQGNVFSCSVMHEALHYHYTQKSLSLSPGK ; its Ratio/Fc-WT = 3.7

All values here come from patent USRE46585.
